# SYSTEM: T1, human CDH6 (full-length and EC domain deletion mutants) (Homo sapiens, UniProt P55285, DEL384-486)
# T1 construct: each one of the five EC domains could be deleted from full-length human CDH6; 3xFLAG (deletion mutants only, from the vector p3×FLAG-CMV-9); expressed in transfected cells; host or cells: 293α cells
# T1 sequence (P55285 with tags, fused parts or gaps DEL384-486): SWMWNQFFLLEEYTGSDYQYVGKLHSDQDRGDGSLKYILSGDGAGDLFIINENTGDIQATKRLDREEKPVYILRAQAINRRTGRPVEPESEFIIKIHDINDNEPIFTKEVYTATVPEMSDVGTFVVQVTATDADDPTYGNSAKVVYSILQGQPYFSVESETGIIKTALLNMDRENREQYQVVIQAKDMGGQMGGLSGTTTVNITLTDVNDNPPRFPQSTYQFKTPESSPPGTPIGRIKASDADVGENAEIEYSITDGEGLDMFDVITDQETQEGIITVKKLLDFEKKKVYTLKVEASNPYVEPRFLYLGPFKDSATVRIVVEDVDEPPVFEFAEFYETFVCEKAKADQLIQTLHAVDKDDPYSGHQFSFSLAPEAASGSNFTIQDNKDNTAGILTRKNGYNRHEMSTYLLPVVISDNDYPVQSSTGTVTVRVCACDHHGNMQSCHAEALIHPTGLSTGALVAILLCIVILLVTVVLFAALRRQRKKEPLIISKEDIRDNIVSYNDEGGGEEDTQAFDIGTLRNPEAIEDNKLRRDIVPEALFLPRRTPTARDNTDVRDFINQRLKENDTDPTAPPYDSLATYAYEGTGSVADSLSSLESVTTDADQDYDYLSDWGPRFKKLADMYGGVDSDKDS
# TEST METHOD NOTES: Epitope analysis of rat anti-CDH6 antibody by flow cytometry using domain deletion mutants
# Assay type: binding
# CONDITIONS: flow cytometry; transfected 293α cells; antibody 20 nM
READOUT TYPE: binding to EC4 deletion mutant

[
  {
    "MOLECULE": "rG055: rat anti-human CDH6 monoclonal antibody produced by hybridoma rG055; variable regions SEQ ID NO: 20 and 25 (antibody, listed as Rattus norvegicus, V domains shown) VL: DVQMTHSPSYLAASPGESVSISCKTSKNISNYLVWYQQKPGEAYKLLIYSGSTLQSGTPSRFSGSGSGTDFTLTIRSLEPEDFGLYFCQQYYEKPFTFGSGTKLEIKRA VH: EVQLQESGPGLVRPSQSLSLSCSVTDYSITSNYWGWIRRFPGNKMEWMGYITYSGYTSYNPSLQSRISITRDTSKNQFFLQLNSVTAEDTATYYCARSINHGGYSYVVDAWGPGASVTVSS",
    "RESULT": "bind"
  },
  {
    "MOLECULE": "rG019: rat anti-human CDH6 monoclonal antibody produced by hybridoma rG019; variable regions SEQ ID NO: 10 and 15 (antibody, listed as Rattus norvegicus, V domains shown) VL: DIQMTQSPSLLSASVGDRVTLNCKASQNIYKNLAWYQQKLGEGPKLLIYDANTLQTGIPSRFSGSGSGSDFTLTISSLQPEDVATYFCQQYYSGWAFGGVTNLELKRA VH: QVQLQQSGAELVKPGSSVKISCKASGYTFTRNFMHWIKQQPGNGLEWIGWIYCGDGETEYNQKFNGKATLTADRSSSTAYMELSRLTSEDSAVYFCARGVYGGFAGGYFDFWGQGVMVTVSS",
    "RESULT": "bind"
  },
  {
    "MOLECULE": "rG056: rat anti-human CDH6 monoclonal antibody produced by hybridoma rG056; variable regions SEQ ID NO: 30 and 35 (antibody, listed as Rattus norvegicus, V domains shown) VL: DVQMTQSPSSLAASPGESVSISCRATKSIGIYLAWYQQKPGKTFKLLIYSGSTLQSGTPSRFSGSGSGTDFTLTIRSLEPEDFGLYFCQQFYENPFTFGSGTKLEIRRA VH: EVQLQESGPGLVKPSQSLSLTCSVTDYSITTYFWGWIRKFPGNKMEWMGYMSYRGGTSYNPSLKSRISITRDTSKNQFFLQLNSVTTEDTATYYCARCPNYGGHSLVFDYWGQGVMVTVSS",
    "RESULT": "bind"
  }
]
